In this section we review reported IC50 values for a set of compounds.
# Measurement target: Recombinant human cathepsin S (CatS) (Homo sapiens, UniProt P25774)
# Sequence (P25774 115-331): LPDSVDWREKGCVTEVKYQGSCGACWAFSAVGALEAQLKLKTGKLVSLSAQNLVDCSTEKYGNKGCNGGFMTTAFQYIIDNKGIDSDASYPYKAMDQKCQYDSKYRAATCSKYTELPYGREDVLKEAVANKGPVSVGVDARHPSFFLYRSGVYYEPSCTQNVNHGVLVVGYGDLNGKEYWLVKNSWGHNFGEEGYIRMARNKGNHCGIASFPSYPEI
# Protocol details: Recombinant human cathepsin S (CatS) inhibition assay, fluorogenic substrate Z-Valine-Valine-Arginine-AMC;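 also: Baculovirus-expressed CatS in pH 5.0 sodium acetate buffer with DTT and NaCl, fluorescence read each minute over 20 min, inhibition derived from rate slope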
# Condition notes: CatS IC50
Number only, in nM; omit the unit.

Examples with answers:
Compound: CS(=O)(=O)N1CCc2c(c(-c3ccc(Cl)c(C#Cc4ccc(CNCCO)cc4)c3)nn2CCCN2CCOCC2)C1 [Example 469]
Measure: IC50
Recorded value: 530
--
Compound: NC(=O)N1CCc2c(c(-c3ccc(Cl)c(C#Cc4ccc(Cl)c(C(=O)NCCN5CCOCC5)c4)c3)nn2CCCN2CCCCC2)C1 [Example 590]
Measure: IC50
Recorded value: 70
--
Compound: C[C@H]1COCCN1CCCn1nc(-c2ccc(Cl)c(C#Cc3ccc(Cl)c(CNCc4ccccc4)c3)c2)c2c1CCN(S(C)(=O)=O)C2 [Example 286]
Measure: IC50
Recorded value: 30
--
Compound: CC(C)CNCc1cccc(CCc2cc(-c3nn(CCCN4CCOCC4)c4c3CN(S(C)(=O)=O)CC4)ccc2Cl)c1 [Example 531]
Measure: IC50
Recorded value: 640
--
Compound: C[C@H]1COCCN1CCCn1nc(-c2ccc(Cl)c(C#Cc3ccc(CO)cc3)c2)c2c1CCN(C(=O)C(N)=O)C2 [Example 618]
Measure: IC50
Recorded value: 20
--
Compound: CS(=O)(=O)N1CCc2c(c(-c3ccc(Cl)c(C#Cc4ccc(CNCc5ccncc5)cc4)c3)nn2CCCN2CCOCC2)C1 [Example 405]
Measure: IC50
Recorded value: 290

Continue with the next compound.
Given the compound C[C@H]1COCCN1CCCn1nc(-c2ccc(Cl)c(C#Cc3ccc(CNCc4ccco4)cc3)c2)c2c1CCN(S(C)(=O)=O)C2 [Example 432] , write its reported IC50.
230

* * *

In this section we review reported pIC50 values for a set of molecules.
# Measurement target: Recombinant human cathepsin S (CatS) (Homo sapiens)
# Protocol details: Recombinant human cathepsin S (CatS) inhibition assay, fluorogenic substrate Z-Valine-Valine-Arginine-AMC
# pIC50: negative log10 of molar concentration; output just the value

Given the molecule CS(=O)(=O)N1CCc2c(c(-c3ccc(Cl)c(CCCCN4CCCCCC4)c3)nn2CCCN2CCC(N3CCCC3=O)CC2)C1 [Example 114] , write its reported pIC50.
5.82

* * *

# Measurement target: Recombinant human cathepsin S (CatS) (Homo sapiens)
# Protocol details: Recombinant human cathepsin S (CatS) inhibition assay, fluorogenic substrate Z-Valine-Valine-Arginine-AMC
# Condition notes: CatS IC50
I'd appreciate it if you marked entries 1 when IC50 is lower than 100 nM and 0 when it is not.

Smiles str: NC(=O)C(=O)N1CCc2c(c(-c3ccc(Cl)c(C#Cc4ccc(Cl)c(C(=O)NCCN5CCOCC5)c4)c3)nn2CCCN2CCCCC2)C1
Measurement target: Recombinant human cathepsin S (CatS) (Homo sapiens)
Category label: 1
//
Smiles str: C[C@H]1COCCN1CCCn1nc(-c2ccc(Cl)c(C#Cc3ccc(Cl)c(C(=O)N4CCCNCC4)c3)c2)c2c1CCN(C(=O)C(N)=O)C2
Measurement target: Recombinant human cathepsin S (CatS) (Homo sapiens)
Category label: 0
//
Smiles str: NC(=O)N1CCc2c(c(-c3ccc(Cl)c(C#Cc4cccc(CNCc5ccc(F)cc5)c4)c3)nn2CCCN2CCSCC2)C1
Measurement target: Recombinant human cathepsin S (CatS) (Homo sapiens)
Category label: 0
//
Smiles str: C[C@H]1COCCN1CCCn1nc(-c2ccc(Cl)c(C#Cc3ccc(F)c(CNCc4ccccc4)c3)c2)c2c1CCN(S(C)(=O)=O)C2
Measurement target: Recombinant human cathepsin S (CatS) (Homo sapiens)
Category label: 0
//
Smiles str: C[C@H]1COCCN1CCCn1nc(-c2ccc(Cl)c(C#Cc3ccc(Cl)c(CNC4CCCC4)c3)c2)c2c1CCN(C(=O)C(N)=O)C2
Measurement target: Recombinant human cathepsin S (CatS) (Homo sapiens)
Category label: 1
//
Smiles str: CS(=O)(=O)N1CCc2c(c(-c3ccc(Cl)c(C#Cc4ccc(CNCc5ccc(Cl)cc5)cc4)c3)nn2CCCN2C[C@@H]3C[C@H]2CN3)C1
Measurement target: Recombinant human cathepsin S (CatS) (Homo sapiens)
Category label: 0
//
Smiles str: NC(=O)N1CCc2c(c(-c3ccc(Cl)c(C#Cc4ccc(Cl)c(CNCc5ccccn5)c4)c3)nn2CCCN2CCSCC2)C1
Measurement target: Recombinant human cathepsin S (CatS) (Homo sapiens)
Category label: 1
//
Smiles str: CS(=O)(=O)N1CCc2c(c(-c3ccc(Cl)c(C#Cc4ccc(Cl)c(CNC5CC5)c4)c3)nn2CCCN2CCCCC2)C1
Measurement target: Recombinant human cathepsin S (CatS) (Homo sapiens)
Category label: 1
//
Smiles str: NC(=O)N1CCc2c(c(-c3ccc(Cl)c(C#Cc4ccc(CNCc5ccc(Cl)cc5)cc4)c3)nn2CCCN2CCN(C3CC3)CC2)C1
Measurement target: Recombinant human cathepsin S (CatS) (Homo sapiens)
Category label: 0
//
Smiles str: CS(=O)(=O)N1CCc2c(c(-c3ccc(Cl)c(C#Cc4cccc(CNCc5cccnc5)c4)c3)nn2CCCN2CCOCC2)C1
Measurement target: Recombinant human cathepsin S (CatS) (Homo sapiens)
Category label: 0

Given `CS(=O)(=O)N1CCc2c(c(-c3ccc(Cl)c(C#Cc4cccc(C=O)c4)c3)nn2CCCN2CCOCC2)C1` , is recorded IC50 strictly lower than 100 nM?
0

Given `NC(=O)N1CCc2c(c(-c3ccc(Cl)c(C#Cc4cccc(CNCc5cccc(Cl)c5)c4)c3)nn2CCCN2CCSCC2)C1` , is recorded IC50 strictly lower than 100 nM?
0
